This collection of values is drawn from patent US20230183352A1.

biological target: T1, Claudin 18.2 (CLDN18.2), expressed on CHOS-CLDN 18.2 / HEK293-CLDN 18.2 / HCC827-CLDN 18.2 cells (human, UniProt P56856-2 1-261); assay: FACS, CHOS-CLDN18.2 cells, 0.005 µg/ml
T1 construct: whole, on cells; The species is not repeated for the CHOS-CLDN 18.2 cells; also called claudin-18A2

# Binder, FACS reading
measured = [
    ("QP14581454 (antibody, human IgG1, kappa, V domains shown, Humanized from QP201202) VH: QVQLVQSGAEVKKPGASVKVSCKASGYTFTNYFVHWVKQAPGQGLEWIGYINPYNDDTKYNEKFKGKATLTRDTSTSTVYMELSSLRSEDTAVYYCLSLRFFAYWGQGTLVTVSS VL: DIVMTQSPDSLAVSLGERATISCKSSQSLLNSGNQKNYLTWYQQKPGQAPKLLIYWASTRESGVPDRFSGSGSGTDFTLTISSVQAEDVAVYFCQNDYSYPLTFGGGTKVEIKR", 2370),
    ("QP14581453 (antibody, human IgG1, kappa, V domains shown, Humanized from QP201202) VH: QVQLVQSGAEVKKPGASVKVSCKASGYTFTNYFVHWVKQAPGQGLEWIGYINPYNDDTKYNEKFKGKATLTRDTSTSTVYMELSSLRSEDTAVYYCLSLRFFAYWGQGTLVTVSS VL: DIVMTQSPDSLAVSLGERATISCKSSQSLLNSGNQKNYLTWYQQKPGQAPKLLIYWASTRESGVPDRFSGSGSGTDFTLTISSLQAEDVAVYYCQNDYSYPLTFGGGTKVEIKR", 2420),
    ("QP201202 (antibody, human IgG1, V domains shown, Chimeric; also called 44C6) VH: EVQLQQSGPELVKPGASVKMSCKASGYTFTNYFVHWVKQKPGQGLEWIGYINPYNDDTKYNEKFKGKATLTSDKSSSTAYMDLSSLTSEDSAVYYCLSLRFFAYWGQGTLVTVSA VL: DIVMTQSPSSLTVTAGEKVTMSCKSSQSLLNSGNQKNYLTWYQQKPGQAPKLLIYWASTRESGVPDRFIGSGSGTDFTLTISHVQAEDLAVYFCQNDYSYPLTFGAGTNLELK", 2260),
    ("QP024025 (antibody, human IgG1, V domains shown, also called IMAB362; 175D10(IMAB362)) VH: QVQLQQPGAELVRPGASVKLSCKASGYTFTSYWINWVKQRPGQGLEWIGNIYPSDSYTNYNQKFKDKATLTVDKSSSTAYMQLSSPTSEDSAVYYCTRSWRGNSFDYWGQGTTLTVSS VL: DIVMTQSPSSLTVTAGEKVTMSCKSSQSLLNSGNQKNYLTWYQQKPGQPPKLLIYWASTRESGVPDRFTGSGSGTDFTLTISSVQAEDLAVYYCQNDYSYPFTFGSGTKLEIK", 2830),
    ("QP14561454 (antibody, human IgG1, kappa, V domains shown, Humanized from QP201202) VH: QVQLVQSGAEVKKPGASVKVSCKASGYTFTNYFVHWVRQAPGQGLEWMGYINPYNDDTKYNEKFKGRVTMTRDTSTSTVYMELSSLRSEDTAVYYCLSLRFFAYWGQGTLVTVSS VL: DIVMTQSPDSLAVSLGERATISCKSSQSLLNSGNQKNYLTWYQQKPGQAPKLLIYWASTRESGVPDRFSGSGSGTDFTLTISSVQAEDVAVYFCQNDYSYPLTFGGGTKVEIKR", 2470),
]
